# procedure-details: yeast display, Sf9 membrane polyspecificity reagent, FACS + sequencing; frameworks hold sequencing errors
endpoint-name: polyreactivity (PSR sort gate)

Examples with answers:
QVQIVESGGGLVQAGGSLRLSCAASGLIFDANAMGWYRQAPGKERELVAAISNGDSTYYADSVKGRFTISRDNAKNTVYLQMNSLKPEDTAVYYCNARIIYRKWLLRSGTFNYWGQGTQVTVSS	low polyreactivity
QVQLVESGGGLVQAGGSLRLSCAASGITFQDNAIGSNRQAPGKERELVAAISTGSTNYADSVKGRFTISRDNAKNTVYLQMKSLKPDDTAVYYCAALGQYQTVYSDGYDYYYWGQGTQVTVSS	low polyreactivity
QVQLVESGGGLVQAGGSLRLSCDASGRIFYFYAMGWYRQAPGKESELVAAISTSGGSTYYADSVKGRFTISRDNAKNTVYLQMNSLKPEDTAVYYCAARYRYYGSEYDYWGQGTQVTVSS	low polyreactivity
QVQLVESGGGLVQAGGSLRLSCAASGIIFRYYAMGWYIQAPGKERELVARITSGARTTYADSVKGRFTISRDNAKNTVYLQMNSLKPEDSAVYYCNAVRRYGLEYNYWGQGTQVTVSS	high polyreactivity

Pending sequence:
IN: Data request, read-out polyreactivity (PSR sort gate), for QVQLVESGGGLVQAGGSLRLSCAASGFIFFYYAMGWYRQAPGKERELVAAITKNGGRTYYADSVKGRFTISRDNAKNTVYLQMNSLKPEDTAVYYCNKVKGQGGYYGYDYWGQGTQVTVSS
OUT: high polyreactivity

---

# procedure-details: yeast display, Sf9 membrane polyspecificity reagent, FACS + sequencing; frameworks hold sequencing errors
endpoint-name: polyreactivity (PSR sort gate)

Reference set (4 entries):
QVQLVESGGGLVQAGGSLRLSCAASGRIFNYYAMGWYRQAPGKERELVAAISSGGITNYADSVKGRFTISRDNAKNTVYLQMNSLKPEDTAVYYCAADRSNRPYYRQGYDYWGQGTQVTVSS	high polyreactivity
QVQLVESRGGLVQAGGSLRLSCAASGITSPYAMGWYRQAPGKERELVAAISWSGSSTYYADSVKGRFTISRDNAKNTVYLQMNSLKPQDTAVYYCNTVGTRQPMDYWGQGTQVTVSS	high polyreactivity
QVKLVESGGGLVQAGGSLRLSCAASGSIFTYYAMGWYRQAPGKERELVADIRWSGGSTYYADSVKGRFTISRDNAKNTVYLQMNSLKPEDTAVYYCNARYYSYWPIYNFDYWGQGTQVTVSS	low polyreactivity
QVQLVESGGGLVQAGGSLRLSCAASGSIFRFNAMGWYRQAAGKERELVAAISVRGSRTYYADSVKGRFTSSSDNAKNTVYLQMNSLKPEDTAVYYCNAEALTYSSRYDYWGQGTQVTVSS	low polyreactivity

Please give polyreactivity (PSR sort gate) for each item listed below.
1. QVQLVESGGGLVQAGGSLRLSCAASGIIFFYYAMGWYRQAPGKERELVAANSSDGSTYYADSVKGRFTISRDNAKNTVYLQMNSLKPEDTAVYYCAVDHYSARLLARYDYWGQGTQVTVSS
2. QVQLVESGGGLVQAGGSLRLSCAASGFILDYNAMGWSRQAPGKERELVASIDSGGGTNYADSVKGRFTISRDNAKNTVYLQMNSLKPEDTAVYYCAADVTLWYDYGGQGTQVTVSS
3. QVQLVESGGGLVQAGGSLRLSCAASGFTFVPNTMGWYRQAPGKERELVARIRWRGGSTYYADSVKGRFTISRDNAKNTVYLQMNSLKPEDTAVYYCNAVRGYDARPYSEVYHGEKYYYWGQGTQVTVSS
4. QVQLVETGGGLVQAGGSLRISCAASGGIFVFYAMGWYRQAPGKERELVAAISWSGTSTYYADSVKGGFTISRDNAKYTVYLQMNRLKPEDTAVYYCAALYPYQYVRGGYWGQGTQVTVSS
5. QVQLVESGGGLVQAGGSLRLSCAPSGSIFRGYAMGWYRQAPGKERELVAAISSGGSTYYADSVKGRFTISRDNAKNTVDLQMNSLKPEDTAVYYCATSTYAYRRISYYSWGQCTQVTVSS

OUT:
["low polyreactivity", "low polyreactivity", "low polyreactivity", "high polyreactivity", "high polyreactivity"]

Consider the following items and state reported polyreactivity (PSR sort gate) for each.
1. QVQLVESGGGLVQAGGSLRLTCAASGFIFLPYAMGWYRQAPGKERELVAAITRGGRTYYADSVKGRFTISRDNAKNTVYLQMNSLKPEDTAVYYCAATTYLVWGYNYWGQGTQVTVSS
2. QVQLVESGGGLVQAGGSLRLSCAASGFTFRKNAMGWYRQAPGKERELVAAIRGSAGSTYYADSVKGRFTISRDNAKNTVYLQMNSLKPEDTAVSYCATGGYPSLWDGYGYWGQGTQVTVSS
3. QVQLVESGGGLVQAGGSLRLSCAASGSTSDINAMGWYRQAPGKERELVAVITFSGGSTNYADSVKGRFTISRDNAKNTVYLQMNSLKPEDTAVYYCNADTLTTTRRFNPYDYWGQGTQVTVSS
4. QVQLVESGGGLVQAGGSLRLSCAASGSTFTYYAMGWYRQPPGKERELVAAIDTSGTSTYYADSVKGRFTISRDNAKNTVYLQINSLKPEDTAVYYCNAYPTTYYQQYDYWGQGTQVTVSS

OUT:
["low polyreactivity", "low polyreactivity", "low polyreactivity", "low polyreactivity"]

---

# procedure-details: yeast display, Sf9 membrane polyspecificity reagent, FACS + sequencing; frameworks hold sequencing errors
endpoint-name: polyreactivity (PSR sort gate)

Below are worked cases with known answers.
QVQLVESGGGLVQAARSLRLSCAASGRIFNYYAMGWYRLAPGKERELVAAINSGGSTYADSVKGRFTISRDNAKNTVYLPMNSLKPEDTAVYYCAKDGQLQSGRERPSGYDHWGQGTQVTVSS	low polyreactivity
QVQLESGGGLVQAGGSLRISCAASGSTFVTYDMGWDRQAPGKEREIVAAIDWSGDSTYADSVKGRFTISRDNAKNTVYLQMNSLIPEDTAVYSCAADYDNYGDVYPYYTAGYGYWGQGTQVTVSS	low polyreactivity
QVQLVESGGGLVQAGGSHRLSCAASGFTFGYYVMGWYRQAPGKERELVAAISKRGSSTYYADCVKGRFTISRDNANTTVYLQMNSLKPVDTAVYYCAADGVYSHKDGHWGQGTQVTVSS	high polyreactivity
QVQLVESGGGLVLAGGSLRLSCAASGSIFKNYAMGWYGQAPGKVRELVAAITRGTYYADSVKGRFTISRDNAKNTVYLQMNSLKPEDTAVYYCNREYWGRGYYRVRGEYDYWGQGTQVTVSS	low polyreactivity

// next entry
IN: Need polyreactivity (PSR sort gate), item QVQLVESGGGLVQAGGSLRLSCAASGSIFQRYAMGWYRQAPGKEREFVAAISGRGGSTYYADSVKGRFTISRDNAKNTVYLQMNSLKPEDTAVYYCAVRGRSYVRTYDYWGQGTQVTVSS
OUT: high polyreactivity

---

# procedure-details: yeast display, Sf9 membrane polyspecificity reagent, FACS + sequencing; frameworks hold sequencing errors
endpoint-name: polyreactivity (PSR sort gate)

Solved cases below.
QVQLVESGGGLVQAGGSLRLSCAASGRTFKANAMGWYRQAPGKERELVAAISYSGGNTYYADSVKGRFTISRDNAKNTVYLQMNSLKPEDTAVYYCAARRGYGRENQFYSWGQGTQVTVSS	high polyreactivity
QVQLVESGGGLVQAGGSLRLSCAASGSTFYRNALGWYRQAPGKERELVARIYRSGSSTSYADSVKGRFTISRDYSKNTVYLQMNSLKPVDTAVYYCATVFVRYEMYWGQGTQLTVSS	high polyreactivity
QVQLVESGGGIVQAGGSLRLTCAASGFIFWDYAMGWYRQAPGKERELVAAISDSGGDTYYADSVKGRFTISRDNAKNTVYLQMNSLNPEDTAVYYCASVVELWVFRGQQYDYWGQGTQVTVSS	low polyreactivity
QDQLEESGGGLVQEGGSLRLSCAASGFIFPRYAMGWYRQAPGKERELVAAISRSGGITRYADSVKGRFSISRDNAKNTVYLQMISLKPEDTAVYYCAAARSYWAKYYYWGQGTQVTVSS	high polyreactivity
QVQLVESGGGLVQAGGSLRLSCAASGSIFSINTMGWYRQAPRTERELVATITWSVGSTNYADSVKGRFTISRDNAKNSVYLQMNSLKPVDTAVYYCNAESFYDYNYWGEGTQVTVSS	low polyreactivity

Please report polyreactivity (PSR sort gate) for every entry that follows.
1. QVQLVESGGGLVQAGGSLRLSCAACGSIFKGNAMGWYRQAPGKERELVARISSGGSTYYADSVKGRFTISRDNAKNTVYLQMNSLKPEDTAVYYCAARVYTSYIRQYTYSYYYWGQGTQVTVSS
2. QVQLVESGGGLVQAGGSLRLSCAASGSTYLYYAMGWYRQAPGKEREMVAAIWSDGSTRYADSVKGRFTISRDNAKNTVYLQMNSLKPEDTAVYYCAVYNYWGQGTQVTVSS
3. QVQLVESGGGLVQAGGSLRLSCAASGPIFLRYAIGWYRQAPGKERVLVAVISRSGSSTYYADSVKGRFTISRDNAKNTVYLQMNSLKPEDTAFYHCAAGYSWGYSSQKLRYGYLGQGTQVTVSS
4. QVQLVESGGGLVQAGGSLRLSCAASGRIFHGYAMGWYRQAPGKDRELVAVIRSGVNTNYADSVKGRFTISRDNAKNTVYLQMNSLKPADTAVYYCAVDYTPEDWGDDYWGQGTHVTVSS
5. QVQLVDSWGGLVQAGGSLRLSCAASGRTSRYAMGWYRQAPGKERELVAAITSSGGRTYYADSVKGRFTISRDNAKNTVYLQMNSLKPEDTAVYYCAAGYLLWRTWDYAAGHNYWGQGTQVTVSS

OUT:
["high polyreactivity", "low polyreactivity", "high polyreactivity", "low polyreactivity", "high polyreactivity"]

IN: Would you kindly share the measured polyreactivity (PSR sort gate) for QVQLVESCGGLVQAGGSLRLSCSASGFIIPYYAMGWYRQAPGKERELVAAISYSGDSTYYADSVKGRFTISRDNAKNTVYLLMISLKPEDTAVYYCAADVEQYYPLLTFDYCGQGTQVTVSS ?
OUT: low polyreactivity
